molecular target: UniProt P09382
Sequence (P09382 2-135): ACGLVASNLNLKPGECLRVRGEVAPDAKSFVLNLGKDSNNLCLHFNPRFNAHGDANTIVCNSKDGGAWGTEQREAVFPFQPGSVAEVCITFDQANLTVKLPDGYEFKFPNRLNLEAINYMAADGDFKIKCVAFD
pKd: −log10 of the molar value.
Experimental endpoint: pKd

Query :: Quick one: pKd of CC(C)=CCC/C(C)=C/CC/C(C)=C/CSc1ccccc1C(=O)O [FTS, farnesyl thiosalicylic acid] ?
Result :: ~5.64
